biological target: Cytochrome P450 2C19 (Homo sapiens)
Sequence (P33261 whole entry): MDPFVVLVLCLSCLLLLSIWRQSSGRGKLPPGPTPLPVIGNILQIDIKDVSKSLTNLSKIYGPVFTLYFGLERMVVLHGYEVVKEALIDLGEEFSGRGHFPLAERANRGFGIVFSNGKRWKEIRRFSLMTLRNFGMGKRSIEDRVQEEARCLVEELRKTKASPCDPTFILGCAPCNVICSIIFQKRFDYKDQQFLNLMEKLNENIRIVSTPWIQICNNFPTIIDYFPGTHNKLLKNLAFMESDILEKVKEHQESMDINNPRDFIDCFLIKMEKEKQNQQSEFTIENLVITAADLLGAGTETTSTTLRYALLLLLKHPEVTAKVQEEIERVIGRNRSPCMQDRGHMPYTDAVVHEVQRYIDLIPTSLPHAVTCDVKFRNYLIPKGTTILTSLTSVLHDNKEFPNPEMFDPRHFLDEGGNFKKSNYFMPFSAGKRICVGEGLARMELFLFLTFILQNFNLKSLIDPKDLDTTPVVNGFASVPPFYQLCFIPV

# Smiles text, Measured target, IC50
records = [
    ("CC(C)(C)[C@H](NC(=O)CC12CC3CC(CC(C3)C1)C2)C(=O)N1C[C@@H]2CCC[C@@H]2[C@H]1C(=O)N[C@H](C(=O)C(=O)NC1CC1)C1CCCCC1", "Cytochrome P450 2C19 (Homo sapiens)", "> 50 µM"),
]

---

assay: Cytotoxicity against human RD cells assessed as reduction in cell viability by neutral red staining based CPE assay; type: toxicity; settings: RD cells
Each entry below carries its recorded CC50.

# Compound, CC50
rows = [
    ("CCC[C@H](NC(=O)[C@@H]1[C@H]2CCC[C@H]2CN1C(=O)[C@@H](NC(=O)CC12CC3CC(CC(O)(C3)C1)C2)C(C)(C)C)C(=O)C(=O)NC1CC1", "> 150 µM"),
    ("CCC[C@H](NC(=O)[C@@H]1[C@H]2CCC[C@H]2CN1C(=O)[C@@H](NC(=O)CC1CCC(F)(F)CC1)C(C)(C)C)C(=O)C(=O)NC1CC1", "> 50 µM"),
    ("CC(C)(C)[C@H](NC(=O)CC12CC3CC(CC(C3)C1)C2)C(=O)N1C[C@@H]2CCC[C@@H]2[C@H]1C(=O)NC1(C(=O)C(=O)NC2CC2)CCC1", "> 150 µM"),
    ("CCC[C@H](NC(=O)[C@@H]1[C@H]2CCC[C@H]2CN1C(=O)[C@@H](NC(=O)CC1CCCC1)C(C)(C)C)C(=O)C(=O)NC1CC1", "> 150 µM"),
    ("CC(C)(C)[C@H](NC(=O)CC12CC3CC(CC(C3)C1)C2)C(=O)N1C[C@@H]2CCC[C@@H]2[C@H]1C(=O)N[C@@H](Cc1c[nH]c2ccccc12)C(=O)C(=O)NC1CC1", "> 150 µM"),
    ("CC(C)(C)[C@H](NC(=O)CC12CC3CC(CC(C3)C1)C2)C(=O)N1C[C@@H]2CCC[C@@H]2[C@H]1C(=O)N[C@H](C(=O)C(=O)NC1CC1)c1ccc(F)cc1", "24.1 µM"),
    ("CCC(C)[C@H](NC(=O)[C@@H]1[C@H]2CCC[C@H]2CN1C(=O)[C@@H](NC(=O)CC12CC3CC(CC(C3)C1)C2)C(C)(C)C)C(=O)C(=O)NC1CC1 (stereo partly specified)", "> 150 µM"),
    ("CCC[C@H](NC(=O)[C@@H]1[C@H]2CCC[C@H]2CN1C(=O)[C@@H](NC(C)=O)C(C)(C)C)C(=O)C(=O)NC1CC1", "> 150 µM"),
    ("CC(C)(C)[C@H](NC(=O)CC12CC3CC(CC(C3)C1)C2)C(=O)N1C[C@@H]2CCC[C@@H]2[C@H]1C(=O)N[C@@H](Cc1ccsc1)C(=O)C(=O)NC1CC1", "28.2 µM"),
    ("CC(C)(C)[C@H](NC(=O)CC12CC3CC(CC(C3)C1)C2)C(=O)N1C[C@@H]2CCC[C@@H]2[C@H]1C(=O)N[C@H](C(=O)C(=O)NC1CC1)c1ccccc1", "35.8 µM"),
    ("CC(C)(C)Oc1ccc(C[C@H](NC(=O)[C@@H]2[C@H]3CCC[C@H]3CN2C(=O)[C@@H](NC(=O)CC23CC4CC(CC(C4)C2)C3)C(C)(C)C)C(=O)C(=O)NC2CC2)cc1", "9.79 µM"),
]
